assay method text: refractive index (Na D-line) (dimensionless)
assay context: 288.15 K; 100 kPa; Liquid; Standard Abbe refractometry
measured attribute: refractive index

>  <compound>
CCCC[P+](CCCC)(CCCC)CCCC.O=S(=O)([O-])CC(O)CN1CCOCC1 [tetrabutylphosphonium 2-hydroxy-3-morpholinopropanesulfonate]

>  <observed measurement>
1.4959

$$$$
>  <compound>
CCCC[P+](CCCC)(CCCC)CCCC.O=S(=O)([O-])CCN(CCO)CCO

>  <observed measurement>
1.49778

$$$$
>  <compound>
CCCC[N+](CCCC)(CCCC)CCCC.O=S(=O)([O-])CCN(CCO)CCO

>  <observed measurement>
1.49093

$$$$
>  <compound>
CCCC[P+](CCCC)(CCCC)CCCC.O=S(=O)([O-])CC(O)CNC1CCCCC1

>  <observed measurement>
1.49654

$$$$

// provenance: the NIST ThermoML archive (doi:10.1021/acs.jced.5b00936)
